assay: growth suppression of PTEN-deleted HCT116, pilot screen, cell-based, HCT116 clonal line, CellTiter-Glo (AID 824); conditions: 60 h, at 10 µM;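 note: 0% = 20 µM Hyamine control and 100% = vehicle cell control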
Inconclusive results are not listed. Calls of active or inactive are those of the source.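 Rule for the calls: active = viability at or below 27.92% in each of two runs, the all-compound median minus 4 SD; inconclusive = no clear call, values can overlap the other calls; inactive = the rest.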
Select the matching outcome among active, inactive

O=C(Cn1nc(-c2ccccc2)ccc1=O)Nc1ccc(N2CCN(C(=O)c3ccccc3)CC2)cc1 ... inactive
CCOc1ccc(-c2nc(CSc3nncs3)cs2)cc1OC ... inactive
Cc1cccc(C)c1N1C(=O)c2ccccc2C1=O ... inactive
O=C(COC(=O)c1ccc(S(=O)(=O)N2CCOCC2)cc1)NC1CCCCCC1 ... inactive
O=C(CN1CCOc2ccccc21)NCc1ccc(F)cc1 ... inactive

What did the test return for `COc1ccccc1C(=O)n1nc(-c2cccnc2)nc1N` ?
inactive

Just curious, what result did `Nc1nonc1-n1nncc1-c1ccccc1` get here?
inactive

For Cc1ccc(F)c(NC(=O)C2CCCCC2C(=O)O)c1 (stereo unspecified) , what call appears in the results of this test?
inactive

Lab log entry: Cc1ccc(-n2c(C)cc(C(=O)OCC(=O)N(C)C3CCS(=O)(=O)C3)c2C)cc1 (stereo unspecified) — outcome as called in the assay?
inactive

Record lookup: outcome of this test for `Fc1ccccc1COc1cccc(/C=N/n2cnnc2)c1` ?
inactive

Dear colleague, could you share the recorded outcome for `CC(C)NS(=O)(=O)c1ccc(CCC(=O)NCc2cccnc2)cc1` when you have a moment?
inactive

Recorded test call requested for O=C1CC(c2ccco2)CC2=C1C1c3ccccc3C(=O)N1c1ccccc1N2 (stereo unspecified)
active

Hey, what did the test say about COc1cccc(-c2nc(CS(=O)CC(=O)NCc3ccccc3)c(C)o2)c1 (stereo unspecified) ?
inactive

# outcome recorded in this test, key = `O=C(C1CC1)N1CCc2cc(Br)cc(S(=O)(=O)NCc3ccccn3)c21`
inactive

Answer briefly: the call reported for `CC(C)N(Cc1nc(-c2ccccc2)no1)C(=O)c1ccc(Cl)cc1` in this assay.
inactive

Entry `CNC(=O)c1nnc(Cc2ccc(F)cc2)o1` : call = ?
inactive

What call does the record list for `COCCNC(=O)c1cc2c(-c3ccc(Cl)cc3)nn(C)c2s1` ?
inactive

Hi, do you know how Cc1cccc(C2Nc3ccccc3C(=O)N2c2ccccc2)n1 (stereo unspecified) came out in this test?
inactive

Call for entry `COc1ccccc1C(=O)N1CCN(c2cccc(Cl)c2)CC1` :
active

I would be grateful if you could indicate the recorded call for `CCCCN=C(C)c1c(O)c2ccccc2oc1=O` .
inactive

* * *

assay: inhibitors of the yeast RAM network, pilot screen, dse1pr::URA3 reporter, 5-FOA selection (AID 869);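 note: 0% = DMSO wells with no growth and 100% = 10 µM 1-NA-PP1 with full growth; RAM network block rescues cells from 5-FOA so hits raise OD615 growth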; conditions: S. cerevisiae dse1pr::URA3 5-FOA growth, OD615, 2 d; at 10 µM; hits give high values; strain carries analog-sensitive mutant Cbk1 kinase
valueKind: inhibition (%)
API: value field is a number in %; no unit string.

Sample records with inhibition:
CCn1c(-c2cc(OC)ccc2OC)csc1=Nc1c(C)n(C)n(-c2ccccc2)c1=O ... 1.58
N#CCCN1CCN(S(=O)(=O)c2ccc(S(=O)(=O)N3CCOCC3)cc2)CC1 ... -0.88
COC(=O)c1sc(NC(=O)C2CCCCC2C(=O)O)c(C(=O)OC)c1C (stereo not drawn) ... 2.49
CCC(CO)N=CC1=C(O)C(C(=O)c2ccccc2)CCC1=O (stereo not drawn) ... 0.62
Cc1ccccc1NC(=O)CCn1c(=O)oc2ccccc21 ... 1.54
COc1ccc(N(CC(=O)Nc2ccc3c(c2)OCO3)S(C)(=O)=O)c(OC)c1 ... 1.41
CCOc1ccccc1C(=O)Nc1nnc(C(C)C)s1 ... 0.55
O=S(=O)(NCc1csc(-c2cccnc2)n1)c1cccs1 ... 1.69
Cc1c(C(=O)NCC2CCCO2)sc2nc(-c3ccccc3)cn12 (stereo not drawn) ... 0.15
CCOC(=O)c1ccc(NS(=O)(=O)c2cc(-c3nnnn3CC)ccc2OC)cc1 ... 1.56

Notebook: `CN1CCN(CCCNC(=O)c2cn(C)c3ccc(S(=O)(=O)N(C)C)cc3c2=O)CC1` , inhibition read as -0.355

The value of inhibition measured for the compound `O=C(Cc1cccs1)N1CCN(c2ccccn2)CC1` turned out to be 0.735

inhibition recorded for this compound, Cc1cccc(C2CC(c3ccc(F)cc3)Nc3nc(N)nn32)c1 (stereo not drawn) , is 0.09

Consider `Cc1sc2nc(SCC(=O)NCc3ccco3)[nH]c(=O)c2c1C` . Its measured inhibition is 2.67

Please fill in: inhibition reported for CC1CCCCN1C(=O)c1ccccc1NC(=O)c1ccco1 (stereo not drawn) = 2.17

* * *

assay: inhibitors of the yeast RAM network, pilot screen, dse1pr::URA3 reporter, 5-FOA selection (AID 869);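 note: 0% = DMSO wells with no growth and 100% = 10 µM 1-NA-PP1 with full growth; RAM network block rescues cells from 5-FOA so hits raise OD615 growth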; settings: S. cerevisiae dse1pr::URA3 5-FOA growth, OD615, 2 d; at 10 µM; hits give high values; strain carries analog-sensitive mutant Cbk1 kinase
valueKind: inhibition (%)
I only need the number, in %, no unit after it.

CCN(CCCNC(=O)Cn1ncc2c(=O)oc3ccccc3c21)c1cccc(C)c1 ... 2.57
CCC/C(=C1/C(=O)CC(C)(C)C(C(=O)OC)C1=O)N1CCCC1 (stereo unspecified) ... 1.51
C=C1c2cc(CC)ccc2NC(=O)N1c1ccc(C)cc1 ... 0.37
c1ccc(-c2noc(CN3CCN(c4ccccc4)CC3)n2)cc1 ... 0.125

Data point: `O=C(Cn1c(=O)oc2cc(S(=O)(=O)N3CCc4ccccc43)ccc21)NC1CCCC1` ; inhibition = 2.91

The recorded inhibition for CCOC(=O)C(C)c1nn(C)c(=O)c2ccccc12 (stereo unspecified) is 1.42

The reported value for `CC(=O)Oc1ccc(C(=O)Nc2nccs2)cc1` in terms of inhibition is 3.5

// sample Cc1oc2c(c1C(=O)NC(Cc1c[nH]c3ccccc13)C(=O)O)CCCC2 (stereo unspecified) , its inhibition was 1.37

compound `CCOC(=O)N1CCN(C(=O)CN(c2ccc(Oc3ccccc3)cc2)S(C)(=O)=O)CC1` , inhibition observed: 0.265

Measured inhibition of `CCN(CC)Cc1c(O)ccc2c(-c3ccccc3)cc(=O)oc12` : 1.23

Lab note: CCCC(C(=O)N1CCOCC1)N1C(=O)C2C3C=CC(C3)C2C1=O (stereo unspecified) gave inhibition of 0.215

* * *

assay: viability gain of MRP-1-high H69AR cells under doxorubicin, pilot screen, MRP-1 activator project, CellTiter-Glo, duplicate (AID 807); settings: H69AR viability with doxorubicin, CellTiter-Glo luminescence; at 10 µM;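 note: compound pretreatment 18-22 h then 72 h combined with doxorubicin; 0% = doxorubicin alone and 100% = vehicle without doxorubicin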
Active and inactive are the calls of the source.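 How the source made its calls: active means viability increase at or above a cutoff of the median across tested compounds plus 3 SD (cut at about 8.5% in these data, passing the limit was not always enough); inconclusive means some gains above the cutoff, reason not given; inactive means the rest.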
Please state which outcome applies, choosing from true (1) (active), false (0) (inactive)

Field: example entries. Status: answers known.
CC(NC(=O)c1ccco1)C(c1cccs1)N1CCOCC1 (configuration not stated) ... false (0)
CCCN1C(=O)c2cc(C(=O)Nc3ccccc3CC)ccc2C1O (configuration not stated) ... false (0)
O=C(NCc1ccc(F)cc1)C1CCC(=O)N1CCc1ccccc1 (configuration not stated) ... false (0)

Given `CCCS(=O)(=O)N1CCn2c(nc3ccccc32)C1` , state the outcome it received in this test.
false (0)

How was CC(=O)c1c(C)[nH]c(C(=O)N2c3ccccc3CC2C)c1C (configuration not stated) classified in this test?
false (0)

Outcome? O=C(NC(O)C(=O)c1ccccc1)c1cccs1 (configuration not stated)
false (0)

Look up the recorded call for `Cc1ccc(C(C)C)c(OCc2nc(-c3nonc3N)no2)c1` in this test.
true (1)

For this molecule, state the assay outcome: `CNC(=O)c1nnc(Cc2ccc(F)cc2)o1`
false (0)

Record lookup: outcome of this test for `CCOC(=O)N1CCN(c2c(Nc3ccc4c(c3)OCCO4)c(=O)c2=O)CC1` ?
false (0)

Any idea what this test logged for `CCCC(=O)c1ccc(N2CCOCC2)c(F)c1` ?
false (0)

I'd appreciate the recorded outcome for COc1ccc(N2Cc3cccc(C(=O)NC(C)CCc4ccco4)c3C2=O)cc1 (configuration not stated) from this test.
false (0)

Short answer needed: outcome of this test for `O=C(Nc1ccncc1)c1cccs1` ?
false (0)

* * *

experiment: Restrictive medium S. cerevisiae growth inhibition, OD615, pilot screen of yeast lifespan reduction project, restrictive growth control (AID 706); settings: OD615, 48 h, at 10 µM, hits give high values;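 note: modified DeaD lifespan yeast strain shifted to restrictive glucose medium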
# growth inhibition listing for each entry below
The figure you give is taken to be in %; do not add the unit.

Cc1cc(C)c(S(=O)(=O)Nc2nnc(C)s2)c(C)c1 ... -11.7

Summary for this molecule, O=C(O)Cc1ccc(NC(=O)C2CCCCC2C(=O)O)cc1 (stereo unspecified) : growth inhibition is -6.54

Item: CCOc1ccc(C(C)NC(=O)CCC(=O)O)cc1 (stereo unspecified) | growth inhibition: -1.54

response.value for `O=C(Cn1c(S(=O)(=O)Cc2ccccc2)nc2ccccc21)N1CCCCC1` (field: growth inhibition) = 2.88

Looking up `CC1(C)Oc2ccc3ccc(=O)oc3c2/C(=C/N)C1=O` , I found its growth inhibition recorded as -4.45
